Test system: MCF7 cells (breast tumor cells) WT
Assay: Test B: cell proliferation/viability assay (CellTiter-Glo) on MCF7 WT
Format: cell-based
Conditions: Homo sapiens, MCF7, 168 h, 7 days of compound exposure
observed-property: IC50 (nM)

molecule	observed-property	units-of-measure	measured-value
Oc1ccc2c(c1)SCC(c1ccc(Cl)nc1Cl)=C2c1ccc(O[C@H]2CCN(CCCF)C2)cc1 [Example 50]	IC50	nM	0.6
Oc1ccc2c(c1)CCCC(c1ccc(OC(F)(F)F)cc1F)=C2c1ccc(N[C@H]2CCN(CCCF)C2)cc1 [Example 88]	IC50	nM	0.3
CCOc1ccc(C2=C(c3cnc(O[C@H]4CCN(CCCF)C4)nc3)c3ccc(O)cc3SC2)c(F)n1 [Example 76]	IC50	nM	0.6
Cc1ccc(C2=C(c3cnc(O[C@H]4CCN(CCCF)C4)nc3)c3ccc(O)cc3CCC2)c(F)c1 [Example 244]	IC50	nM	0.9
Oc1ccc2c(c1)CCCC(c1ccc(OC(F)F)c(F)c1)=C2c1ccc(O[C@H]2CCN(CCCF)C2)nc1 [Example 241]	IC50	nM	0.1
Cc1ccc(C2=C(c3ccc(O[C@H]4CCN(CCCF)C4)cc3)c3ccc(O)cc3[S+]([O-])C2)c(F)c1 (stereo partly shown) [Example 57]	IC50	nM	33
Oc1ccc2c(c1)SCCC(c1ccc(OC(F)F)cc1F)=C2c1ccc(O[C@H]2CCN(CCCF)C2)cc1 [Example 213]	IC50	nM	0.3

---

Molecular target: His6-ERα298-554 Y537S mutant (ERα ligand-binding domain) (Homo sapiens (Human), UniProt P03372, Y537S)
Sequence (P03372 298-554 Y537S): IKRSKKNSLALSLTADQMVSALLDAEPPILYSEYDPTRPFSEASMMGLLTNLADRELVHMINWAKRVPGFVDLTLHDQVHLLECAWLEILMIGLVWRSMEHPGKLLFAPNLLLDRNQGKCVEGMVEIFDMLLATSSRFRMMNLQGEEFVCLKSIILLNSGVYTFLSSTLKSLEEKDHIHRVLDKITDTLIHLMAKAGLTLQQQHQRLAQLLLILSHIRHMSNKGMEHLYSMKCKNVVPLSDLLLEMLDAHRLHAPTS
Test: Test A: biochemical antagonist activity, LanthaScreen TR-FRET ERα coactivator assay, Y537S mutant
Conditions: protocol with 3 nM estradiol; read-out: Antagonism Y537S IC50
Method: Test A: Biochemical Antagonist Activity on Wild Type (WT) and Mutants Estrogen Receptors Test A involves measuring the in vitro antagonist activity of the compounds of the invention on estrogen receptors. […] Antagonistic potency of compounds was evaluated using LanthaScreen® TR-FRET ERα Coactivator Assay (ThermoFisher) with modifications. […] The assay works in a homogeneous mix-and-read format. […]
The entries below are paired with their reported IC50.

molecule	IC50, µM
Oc1ccc2c(c1F)OCCC(c1ccc3cc[nH]c3c1)=C2c1ccc(O[C@H]2CCN(CCCF)C2)cc1 [Example 131]	0.276
Cc1cc2c(cc1O)OCCC(c1ccc3[nH]ccc3c1)=C2c1ccc(O[C@H]2CCN(CCCF)C2)cc1 [Example 139]	0.819
Cc1c(Cl)cccc1C1=C(c2ccc(O[C@H]3CCN(CCCF)C3)cc2)c2cc(O)ccc2SCC1 [Example 173]	0.087
Oc1ccc2c(c1)SCC(c1ccc(OC(F)(F)F)cc1F)=C2c1ccc(O[C@H]2CCN(CCCF)C2)cc1 [Example 37]	0.475

---

Biological target: ERα in MCF7 cells (Homo sapiens (Human))
Sequence (P03372 whole entry): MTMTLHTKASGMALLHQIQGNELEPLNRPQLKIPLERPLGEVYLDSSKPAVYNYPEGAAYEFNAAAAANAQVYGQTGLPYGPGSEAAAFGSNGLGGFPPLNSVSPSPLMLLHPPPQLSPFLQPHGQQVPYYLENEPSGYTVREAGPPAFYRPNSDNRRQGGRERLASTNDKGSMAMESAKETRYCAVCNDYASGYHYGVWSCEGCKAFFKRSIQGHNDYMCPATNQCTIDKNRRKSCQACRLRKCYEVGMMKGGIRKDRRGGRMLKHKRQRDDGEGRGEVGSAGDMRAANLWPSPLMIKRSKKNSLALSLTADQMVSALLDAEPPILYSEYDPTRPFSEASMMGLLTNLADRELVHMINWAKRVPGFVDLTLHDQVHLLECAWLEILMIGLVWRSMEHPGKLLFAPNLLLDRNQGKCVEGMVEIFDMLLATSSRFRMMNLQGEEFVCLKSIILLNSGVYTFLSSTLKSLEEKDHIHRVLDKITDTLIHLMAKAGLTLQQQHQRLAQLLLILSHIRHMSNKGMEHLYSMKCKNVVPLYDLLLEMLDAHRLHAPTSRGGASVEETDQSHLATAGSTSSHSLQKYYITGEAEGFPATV
Experiment: Test C: estrogen receptor degradation activity, ERα in cell western assay in MCF7 cells
Assay type: cell-based
Conditions: at 3 μM, 4 hours, relative to fulvestrant
Where % Degradation at 3 μM equals or exceeds 80%, the correct label is yes; where it does not, the label is no.

compound	category-label
Nc1ccc(C2=C(c3ccc(O[C@H]4CCN(CCCF)C4)cc3)c3ccc(O)cc3SCC2)c(F)n1 [Example 223]	yes
Oc1ccc2c(c1Cl)OCCC(c1cccc3c1CCN3)=C2c1ccc(O[C@H]2CCN(CCCF)C2)cc1 [Example 128]	no
Oc1ccc2c(c1)SCC(c1ccc(OC(F)F)cc1F)=C2c1ccc(O[C@H]2CCN(CCCF)C2)cc1 [Example 35]	yes
COc1ccc(C2=C(c3ccc(O[C@H]4CCN(CCCF)C4)cc3)c3ccc(O)cc3SC2)c(F)c1 [Example 24]	yes
COc1ccc(C2=C(c3ccc(O[C@H]4CCN(CCCF)C4)cc3)c3ccc(O)cc3OCC2)c(F)c1 [Example 121]	yes
Cc1cc2c(cc1O)OCCC(c1ccc3[nH]ccc3c1)=C2c1ccc(O[C@H]2CCN(CCCF)C2)cc1 [Example 139]	no
